- Test system: PLK3;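 further: KINOMEscan kinase panel screen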
- Condition summary: concentration: 1 μM, replicates: in singlicate; n = 1
%Inh reference
Report the value in % with no unit label.

Sample answers from the record:
COc1cc2ncnc(Nc3cccc(Br)c3)c2cc1OC.Cl [GI230329] :: 0
CNCc1ccc2nc(NC(=O)c3ccc(C(C)(C)C)cc3)cn2c1 :: 22
CCCCc1nn2ncccc2c1-c1ccnc(NC2CC2)n1 [GW684374] :: 0
FC(F)(F)c1ccccc1-c1cc(-c2c[nH]nc2-c2ccccn2)ccn1 [GW679396] :: 0
CNc1nc(-c2ccc3c(N)n[nH]c3c2)cc(N2C[C@@H](C(=O)NC3CCCCC3)OC[C@H]2C)n1 [GSK2375584] :: 1

Query %Inh for CC(=O)c1cccc(NC(=O)NC2CCN(c3ccnc(Nc4ccc(F)cc4)n3)C2)c1 (stereo not drawn) [GSK1379710] 9

Query %Inh for COc1ccc(Nc2nccc(NCCNC(=O)Nc3cc(C)ccc3C)n2)cc1 [GSK1379899] 0

Query %Inh for Fc1ccc(-c2nc3n(c2-c2ccncc2)CCS3)cc1 [GI98581] 0

Query %Inh for Cl.Cl.Cl.N#Cc1ccc(CCNc2nccc(-c3cccc(CN4CCNCC4)c3)n2)cc1 [GSK2137462] 0
